Entries annotated with measured pIC50
Assay target: NDM-1 (Klebsiella pneumoniae, UniProt C7C422)
Sequence (C7C422 29-270, looked up, species assumed): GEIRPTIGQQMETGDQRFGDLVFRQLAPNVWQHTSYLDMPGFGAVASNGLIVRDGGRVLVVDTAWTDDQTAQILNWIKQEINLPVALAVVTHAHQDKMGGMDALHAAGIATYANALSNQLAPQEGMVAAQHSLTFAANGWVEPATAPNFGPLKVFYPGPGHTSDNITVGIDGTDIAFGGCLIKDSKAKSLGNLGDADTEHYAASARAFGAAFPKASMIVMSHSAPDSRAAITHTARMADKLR
Procedure details: Enzyme activity: determination of IC50, fluorescence assay with CCF2-FA substrate
Format: biochemical
Protocol conditions: NDM-1 enzyme 1 pM, CCF2-FA 1.25 μM, 2 hours at 25° C.; read-out: NDM1 IC50
Value format note: pIC50 is -log10 of concentration (mol/L); just state the number.

Inquiry: Fill blank: measured pIC50 of the compound CC(C)C[C@H](C(=O)O)[C@H](Cc1ccc(COC2CCNCC2)c(F)c1)c1nn[nH]n1.O=C(O)C(F)(F)F [Example 447, 2,2,2-trifluoroacetate] is ____.
Reply text: 6.98

More entries:
Inquiry: What does the data say about its pIC50? Entry: "CCC[C@H](C(=O)O)[C@H](Cc1ccc(-c2cnc3[nH]c(=O)[nH]c3c2)cc1)c1nnn[nH]1"
Reply text: 7.89

Inquiry: Look up pIC50 for this compound: CCC[C@H](C(=O)O)[C@H](Cc1ccc(C2CCNCC2O)cc1)c1nnn[nH]1 (mixture of isomers)
Reply text: 6.55

Inquiry: Quick one: pIC50 for "CCC[C@H](C(=O)O)[C@H](Cc1ccc2nsnc2c1)c1nnn[nH]1" ?
Reply text: 7.08

Inquiry: Which pIC50 value is on record for CCC[C@H](C(=O)O)[C@H](Cc1ccccc1C1=CCC(NC)CC1)c1nn[nH]n1 (stereo partly drawn) [Example 448, 2,2,2-trifluoroacetate] ?
Reply text: 7.03

Inquiry: Requested field: pIC50. Item: CC(C)C[C@H](C(=O)O)[C@H](Cc1ccc(Oc2ccccc2C2CCCN2)nc1)c1nn[nH]n1 (stereo partly drawn) [Example 374]
Reply text: 7.92
